assay: Testing for mydriasis (effect on pupil size); conditions: rat, in vivo, iv; rats; pupil observed 10 minutes
quantity-name: ED50 at 10 min (mg/kg)
API: value field is a number in mg/kg; no unit string.

Quick check: ED50 at 10 min of CN1CC=C(CC(=O)N2c3ccccc3C(=O)Nc3cccnc32)CC1 ?
0.074

How about this molecule: CN1[C@@H]2CC[C@H]1C[C@@H](CC(=O)N1c3ccccc3C(=O)Nc3cccnc31)C2
0.22

====

molecular target: muscarinic receptors (smooth muscle of the fundus of the stomach) (Rattus norvegicus); construct: The smooth muscle of the fundus of the stomach was separated from the mucous membrane of the stomach; assay: Binding to muscarinic receptors, smooth muscle of the fundus of the stomach (inhibition of specific 3H-NMS binding); conditions: 0.3 nM 3H-NMS, 45 min, 30° C., pH 7.4, read-out: Receptor Binding Tests IC50, Smooth Muscle Fundus of Stomach
Sequence (P10980 whole entry): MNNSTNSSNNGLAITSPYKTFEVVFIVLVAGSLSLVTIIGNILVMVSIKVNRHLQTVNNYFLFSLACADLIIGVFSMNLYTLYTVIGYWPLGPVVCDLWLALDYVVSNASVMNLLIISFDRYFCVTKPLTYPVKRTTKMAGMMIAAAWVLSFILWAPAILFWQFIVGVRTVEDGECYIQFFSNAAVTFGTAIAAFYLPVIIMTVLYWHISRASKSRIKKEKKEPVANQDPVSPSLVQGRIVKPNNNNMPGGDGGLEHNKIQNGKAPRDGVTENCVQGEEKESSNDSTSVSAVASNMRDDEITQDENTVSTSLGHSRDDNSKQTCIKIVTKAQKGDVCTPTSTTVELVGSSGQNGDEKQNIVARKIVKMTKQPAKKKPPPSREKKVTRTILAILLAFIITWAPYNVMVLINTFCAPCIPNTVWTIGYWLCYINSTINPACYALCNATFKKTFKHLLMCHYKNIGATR
quantity-name: pIC50
// pIC50 is dimensionless: -log10 of concentration (M)

Please give the measured pIC50 for this compound: CN1CC=C(CC(=O)N2c3ccccc3C(=O)Nc3cccnc32)CC1
6.70

Again, but for CN1[C@@H]2CC[C@H]1C[C@@H](CC(=O)N1c3ccccc3C(=O)Nc3cccnc31)C2
6.15

====

biological target: muscarinic receptors (cerebral cortex); assay: Binding to muscarinic receptors, cerebral cortex (inhibition of specific 3H-NMS binding); settings: 0.3 nM 3H-NMS, 45 min, 30° C., pH 7.4, read-out: Receptor Binding Tests IC50, Cortex
quantity-name: pIC50
In simple prose, pIC50 is minus the logarithm base ten of a concentration in moles per litre.

Using the record for CN1CC=C(CC(=O)N2c3ccccc3C(=O)Nc3cccnc32)CC1 , report its pIC50.
7.30

What would you report for CN1[C@@H]2CC[C@H]1C[C@@H](CC(=O)N1c3ccccc3C(=O)Nc3cccnc31)C2 ?
7.30
